System: CAOV-3 cells
assay-comment: In vitro proliferation inhibition (CellTiter-Glo), CAOV-3
Type: cell-based
conditions-used: Homo sapiens; CAOV-3, ovarian cancer, HRD-positive (low expression of ATM protein); 6-10 days culture
Excerpt: […] Experimental data processing method: The luminescence signal value was used to calculate the inhibition rate. […]
Give measured pIC50 for each item. Keep answers brief.
Answers are plain numbers, as −log10 of the molar value.

smiles-data: CCc1cc2ncc(CN3CCN(c4ccc(C(=O)NC)nc4)CC3)cc2[nH]c1=O
pIC50: 8.40

Now examine the next entry.
# input Request body: readout pIC50, system CAOV-3 cells, query O=C(c1cc(Cc2n[nH]c(=O)c3ccccc23)ccc1F)N1CCN(C(=O)C2CC2)CC1 . Return the value.
# output 6.82
